This collection of values is drawn from PubChem BioAssay (NCI).

Assay: NCI Yeast Anticancer Drug Screen. Data for the cln2 rad14 strain (AID 165);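 also: 0% = growth equal to vehicle treated cultures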
Conditions: S. cerevisiae cln2 rad14 strain, at 50.0 µM, hits give high values
This is part of a sample that, as a whole, favours compounds with a hit. Of some 79,000 tested, about 15% had one in any assay.
Measure name: growth inhibition (%)
Could you give me the number in %? Just the number is fine.

Solved cases (6 shown):
Molecule	Value unit	Result number
Cc1cc(S(=O)(=O)Nc2nnc3cc(C(F)(F)F)cc(C)n23)c(S)cc1Cl	%	-15.8
CC(=O)c1ccccc1	%	-5.7
NC(=S)c1cc[n+]([O-])cc1	%	-11.2
C1=COC(C2NCCCN2)CC1 (stereo not drawn)	%	-68.8
COc1cc(CCNC2=CC(=O)c3cccnc3C2=O)ccc1O	%	11.8
O/N=C1\CCn2cccc21	%	0.25

# query: growth inhibition of entry "O=C(O)c1cc(Br)c(O)cc1O"
9.35

Again, but for "Cc1cc2c(=O)c(C(=O)O)c[nH]c2cc1-n1cccc1"
15.7

Again, but for "O=S(=O)(O)c1cc(O)c(N=NC2S(=O)(=O)OCCOS2(=O)=O)c2ccccc12"
-9.2

Again, but for NC1CC(=O)C(CC2C(=O)CC(N)CC2=O)C(=O)C1 (stereo not drawn)
-1.8

Again, but for "CCCCCC(=O)C(C)(c1nc2nnc(NC(=O)Nc3ccc(Cl)cc3)n2[nH]c1=O)c1nc2nnc(NC(=O)Nc3ccc(Cl)cc3)n2[nH]c1=O"
-45

Again, but for "CC(=O)Nc1cc(Cl)c(Oc2ccccc2)cc1[N+](=O)[O-]"
33

Again, but for COc1cc(C2c3c(cc(OC)c(O)c3OC)C=C(C(=O)O)C2CO)cc(OC)c1O (stereo not drawn)
24.3

Again, but for "COc1ccc2c(c1)CCC1=C2CCC2=CC(=O)CC[C@@]21C"
2.5

Again, but for "CCCCSc1ncnc2nc(C)[nH]c12"
-25.6

Again, but for "CCOC(=O)NC(Nc1cc(Cl)ccc1OC)(C(F)(F)F)C(F)(F)F"
9.65

Again, but for CCOC(=O)C1C=C1C(C)(C)O (stereo not drawn)
1

Again, but for Cc1cc(=O)oc2c(CNC(Cc3ccccc3)C(=O)O)c(O)ccc12 (stereo not drawn)
-21.1

====

Test: NCI Yeast Anticancer Drug Screen. Data for the sgs1 mgt1 strain (AID 161);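 also: 0% = growth of cultures given vehicle only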
Details: S. cerevisiae sgs1 mgt1 strain, at 50.0 µM, hits give high values
Compounds without any hit were thinned out: in the full panel of roughly 79,000, 15% have a hit.
This listing pairs compounds with measured growth inhibition.
Could you give me the number in %? Just the number is fine.

# query: growth inhibition of entry "Cc1cccc(Cl)c1NC(=O)CN(C)C"
17.7

====

Experiment: NCI Yeast Anticancer Drug Screen. Data for the rad50 strain (AID 155);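 also: 0% = growth of vehicle-only cultures of the same strain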
Settings: S. cerevisiae rad50 strain growth inhibition; at 50.0 µM; hits give high values
About 79,000 compounds went through this panel and 15% of them were active in at least one assay; those are over-represented in the sample as a whole.
This listing pairs compounds with measured growth inhibition.
Could you give me the number in %? Just the number is fine.

Solved cases (10 shown):
Compound	Measure name	Result number
CCC1=C(C)/C(=C/c2[nH]c(C)cc2C)N=C1C	growth inhibition	5.5
COc1ccc2c(c1OC)C(Cc1ccccc1)N1CCc3cc4c(cc3C1C2)OCO4 (stereo unspecified)	growth inhibition	21.4
COc1cccc(NC(=O)/C(CS(=O)(=O)CCC(C(C)=O)C(C)=O)=N\NC(C)(C)C)c1	growth inhibition	11.7
CCOC(=O)C1=C(C)N(NC(=O)Nc2ccccc2)C2(N)N(NC(=O)Nc3ccccc3)C(C)=C(C(=O)OCC)C12C(=O)OCC (stereo unspecified)	growth inhibition	-28.1
COc1ccc(NC(=O)NNS(=O)(=O)c2ccc(C)cc2)cc1	growth inhibition	10.1
O=C(Cn1c(=O)oc2ccc(C(=O)c3ccccc3Cl)cc21)c1ccc([N+](=O)[O-])cc1	growth inhibition	-27.6
CC(=O)/C=C(\c1ccccc1)c1c(O)c2ccccc2oc1=O	growth inhibition	-2
c1ccn2cncc2c1	growth inhibition	17
Cc1ccc(NC(=S)Nc2ccccc2C)nc1	growth inhibition	5.95
CCCC1(O)c2ccccc2-c2ccccc21	growth inhibition	12.1

Next compound, please.
# query: growth inhibition of entry "O=C1NN(c2ccccc2)CCO1"
-2.45

====

Assay: NCI Yeast Anticancer Drug Screen. Data for the rad50 strain (AID 155);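 also: 0% = growth of vehicle-only cultures of the same strain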
Settings: S. cerevisiae rad50 strain growth inhibition; at 50.0 µM; hits give high values
This is part of a sample that, as a whole, favours compounds with a hit. Of some 79,000 tested, about 15% had one in any assay.
Measure name: growth inhibition (%)
Could you give me the number in %? Just the number is fine.

Compound	growth inhibition (%)
CC1(O)/C=C\C=C(\CO)C2CC(C)(C)C2(O)CC1 (stereo not drawn)	-29.9
N#C/C(C(N)=O)=C1\CCCc2sccc21	-13.3

Next compound, please.
# query: growth inhibition of entry CC1(c2nc3ccccc3[nH]2)CCC(C(=O)O)C(C)(C)O1 (stereo not drawn)
1.75

====

This listing pairs molecules with measured growth inhibition.
Experiment: NCI Yeast Anticancer Drug Screen. Data for the sgs1 mgt1 strain (AID 161);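 also: 0% = growth of cultures given vehicle only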
Conditions: S. cerevisiae sgs1 mgt1 strain, at 50.0 µM, hits give high values
This is part of a sample that, as a whole, favours compounds with a hit. Of some 79,000 tested, about 15% had one in any assay.
Could you give me the number in %? Just the number is fine.

Solved cases (8 shown):
Molecule	growth inhibition (%)
Cc1[nH]n(C(=N)N)c(=O)c1CCO	-18.6
C=CCN1C(=O)c2ccccc2S1(=O)=O	-5.95
CNC(=O)NC1NC(=O)N(C)C1=O (stereo not drawn)	-0.4
Brc1c(-c2ccccc2)oc2nc3ccccc3nc12	0.2
O=C1CCCC1Sc1ccccn1 (stereo not drawn)	-29.6
CCCCCc1ccccc1OCC1CO1 (stereo not drawn)	-17.6
CCC1(C)OCC(C)(C)C(C(C)C)O1 (stereo not drawn)	-17.4
O=C(Cc1ccccc1CC(=O)Oc1ccccc1)Oc1ccccc1	10.8

# query: growth inhibition of entry COc1ccc(C(C#N)N2CCCN(C(C#N)c3ccc(OC)cc3)C2c2ccccc2)cc1 (stereo not drawn)
-9.05

====

Test: NCI Yeast Anticancer Drug Screen. Data for the cln2 rad14 strain (AID 165);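 also: 0% = growth equal to vehicle treated cultures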
Settings: S. cerevisiae cln2 rad14 strain, at 50.0 µM, hits give high values
Compounds without any hit were thinned out: in the full panel of roughly 79,000, 15% have a hit.
Measure name: growth inhibition (%)
Could you give me the number in %? Just the number is fine.

Solved cases (5 shown):
Compound	Value unit	Result number
CN(C)c1ccccc1CN1CCCN(Cc2ccccc2N(C)C)C1c1ccncc1	%	-0.25
O=C(O)COc1ccc(C(=O)/C(SS/C(C(=O)c2ccc(OCC(=O)O)c(Cl)c2Cl)=C2\C=C(c3ccccc3Cl)SS2)=C2/C=C(c3ccccc3Cl)SS2)c(Cl)c1Cl	%	7.05
COc1cccc(NC(=S)NCc2cccnc2)c1	%	9.25
Nc1ccc(P(=O)(Nc2ccc3ccccc3c2)Nc2ccc3ccccc3c2)cc1	%	79.9
CCCCCCCC(=O)OCC1OC(n2cc(F)c(=O)[nH]c2=O)C(NC(=O)OCc2ccccc2)C(OC(=O)CCCCCCC)C1O (stereo unspecified)	%	14.3

# query: growth inhibition of entry "C(=C\c1ccc(OCc2ccccc2)cc1)/c1ccc(OCc2ccccc2)cc1"
-7.6

Again, but for "CCOC(=O)c1oc2c(OC)ccc3c2c1CCC3"
-9.4

Again, but for "COc1cc(C=O)cc(Br)c1O"
-8.45

Again, but for "Cc1cc(=O)n2[nH]nnc2n1"
13.2

Again, but for "CCc1nc(N)nc(N)c1-c1ccc2nn(-c3ccccc3)[n+]([O-])c2c1"
14.8

Again, but for "C1=[N+](c2ccccc2)CCN1c1ccccc1"
-27.3

Again, but for "Cc1cc(O)c(C=NC(=S)c2ccccc2)c(=O)o1"
5.3

Again, but for "OCc1ccccc1"
-14.7

Again, but for "C[N+]1(C)N=C([O-])N(c2ccccc2F)C1=O"
-17.1

Again, but for "CN(C)S(=O)(=O)c1ccc(N)c([N+](=O)[O-])c1"
-5.05

Again, but for C=C1CC23CC[C@H]4[C@@](C)(CCC[C@@]4(C)C(=O)OC4OC(CO)C(O)C(O)C4O)[C@@H]2CC[C@@]1(OC1OC(CO)C(O)C(O)C1OC1OC(CO)C(O)C(O)C1O)C3 (stereo partly specified)
25.4

Again, but for "O=C(NC(=O)c1ccccc1Cl)Nc1ccc(C(O)(C(F)(F)F)C(F)(F)F)cc1"
68.7

Again, but for "O=C(Nc1ccc2ccccc2c1)C(F)(F)F"
-9.8

Again, but for COC(=O)c1ccccc1NC(=O)/C(=N\NC(C)(C)C)C(C#N)c1nc(-c2ccc([N+](=O)[O-])cc2)cs1 (stereo unspecified)
18.6

Again, but for CC(C)(CO)C(O)C(=O)NCCO (stereo unspecified)
5.15

Again, but for "Cc1cc(C(c2ccccc2)c2cc(C)cc(C(C)(C)CC(C)(C)C)c2O)c(O)c(C(C)(C)CC(C)(C)C)c1"
20.8

Again, but for CCCCOC(=O)C(=O)C(CC(C(=O)Cc1ccccc1)c1ccccc1)C(=O)C=C(C)C (stereo unspecified)
-12.1

Again, but for CC(=O)NC(CSC1=C2NC(=O)\C=C/C=C/C=C\C(C)C(O)CC(=O)/C(C)=C\CC(O)/C=C/C(C)C(O)C(C)C=C(C)C(=O)c3c(O)c(C)cc(c3C1=O)C2=O)C(=O)O (stereo unspecified)
23.3

Again, but for "CC(C)Cc1ccc(OC(=O)Nc2ccccc2)cc1"
-3.4
